Origin of measurements: patent US20240117334A1

Reported pEC50 values follow for various molecules
- SYSTEM TESTED: Human Factor B (Homo sapiens, UniProt P00751)
- Sequence (P00751 26-764): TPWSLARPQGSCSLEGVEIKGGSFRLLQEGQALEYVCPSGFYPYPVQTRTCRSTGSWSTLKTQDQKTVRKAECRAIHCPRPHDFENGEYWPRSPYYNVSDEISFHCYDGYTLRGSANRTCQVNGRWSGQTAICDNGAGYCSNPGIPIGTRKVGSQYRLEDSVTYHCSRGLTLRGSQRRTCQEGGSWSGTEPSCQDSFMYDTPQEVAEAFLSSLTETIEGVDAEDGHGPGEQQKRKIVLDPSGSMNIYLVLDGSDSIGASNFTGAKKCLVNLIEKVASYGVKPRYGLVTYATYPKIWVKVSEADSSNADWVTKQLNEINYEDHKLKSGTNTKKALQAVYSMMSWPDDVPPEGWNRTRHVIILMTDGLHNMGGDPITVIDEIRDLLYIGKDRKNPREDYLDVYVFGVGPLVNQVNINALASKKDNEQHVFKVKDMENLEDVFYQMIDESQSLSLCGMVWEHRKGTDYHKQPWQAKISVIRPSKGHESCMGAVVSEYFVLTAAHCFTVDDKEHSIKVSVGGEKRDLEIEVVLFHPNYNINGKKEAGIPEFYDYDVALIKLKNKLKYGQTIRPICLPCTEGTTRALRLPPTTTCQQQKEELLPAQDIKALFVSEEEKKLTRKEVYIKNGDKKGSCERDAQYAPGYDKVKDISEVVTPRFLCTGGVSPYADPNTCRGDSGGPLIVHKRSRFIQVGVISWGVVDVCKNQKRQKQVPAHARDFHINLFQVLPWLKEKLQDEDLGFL
- PROCEDURE DETAILS: Human Factor B cleavage EC50 in 80% human plasma (Table 10A)
- Assay type: biochemical
- CONDITION PARAMETERS: chymase-based engineered proteases; no plasma stated; read-out: fB Cleavage EC50
Worth noting: pEC50 values are minus log10 of concentrations stated in mol/L.

{"MOLECULE": "C22S/F173L/Y215H/A226R (protein, listed as Homo sapiens) IIGGTESKPHSRPYMAYLEIVTSNGPSKFCGGFLIRRNFVLTAAHCAGRSITVTLGAHNITEEEDTWQKLEVIKQFRHPKYNTSTLHHDIMLLKLKEKASLTLAVGTLPFPSQFNFVPPGRMCRVAGWGRTGVLKPGSDTLQEVKLRLMDPQACSHLRDFDHNLQLCVGNPRKTKSAFKGDSGGPLLCAGVAQGIVSHGRSDAKPPRVFTRISHYRPWINQILQAN", "pEC50": 5.22}

// below: pEC50 requested for another molecule
Incoming: Report pEC50 for C22S/V138L/A226R (protein, listed as Homo sapiens) IIGGTESKPHSRPYMAYLEIVTSNGPSKFCGGFLIRRNFVLTAAHCAGRSITVTLGAHNITEEEDTWQKLEVIKQFRHPKYNTSTLHHDIMLLKLKEKASLTLAVGTLPFPSQFNFVPPGRMCRLAGWGRTGVLKPGSDTLQEVKLRLMDPQACSHFRDFDHNLQLCVGNPRKTKSAFKGDSGGPLLCAGVAQGIVSYGRSDAKPPRVFTRISHYRPWINQILQAN please.
Outgoing: 5.46
